Some compounds, each annotated with its measured Bliss excess.
Test system: COR-L311 (Small Cell Lung Carcinoma)
method: Bliss excess, mean over the matrix (fraction); higher = more synergy
// no unit string in output, number only

C[C@@H]1COCCN1c1cc(C2([S@](C)(=N)=O)CC2)nc(-c2ccnc3[nH]ccc23)n1 [AZD6738] + O=C(c1cc(Cc2n[nH]c(=O)c3ccccc23)ccc1F)N1CCN(C(=O)C2CC2)CC1 [Olaparib] (first compound max 10 µM, 7x7, partner max 10 µM) :: -0.0507
CN(CCO)CC[C@H](CSc1ccccc1)Nc1ccc(S(=O)(=O)NC(=O)c2ccc(N3CCC([C@@H](O)c4ccccc4-c4ccc(Cl)cc4)CC3)cc2)cc1S(=O)(=O)C(F)(F)F [AZD4320] + CN(C)CCCOc1ccc(-c2ccc3ncc4c(c3c2)n(C2CCOCC2)c(=O)n4C)cn1 [AZD0156] (first compound max 1 µM, 7x7, partner max 1 µM) :: 0.0177
COc1cccc(OCCCN)c1-c1cc(Nc2cnc(C#N)cn2)n[nH]1 [Prexasertib] + CCc1c2c(nc3ccc(O)cc13)-c1cc3c(c(=O)n1C2)COC(=O)[C@]3(O)CC [SN-38] (first compound max 1 µM, 7x7, partner max 0.3 µM) :: -0.0058

// fetch Bliss excess for COc1nnc2ccc(N3CCC(c4ccc(OCCN5CCN(C)C(=O)[C@H]5C)cc4)CC3)nn12 [AZD5153] + Cn1cnc2c(F)c(Nc3ccc(Br)cc3Cl)c(C(=O)NOCCO)cc21 [Selumetinib] (first compound max 1 µM, 7x7, partner max 10 µM) ; system: COR-L311 (Small Cell Lung Carcinoma)
-0.0334

* * *

Tested on: JSC-1 (B-Cell Non-Hodgkin's Lymphoma)
method: Bliss excess, mean over the matrix (fraction); higher = more synergy
Some compounds, each annotated with its measured Bliss excess.
// no unit string in output, number only

// fetch Bliss excess for Cn1cnc2c(F)c(Nc3ccc(Br)cc3Cl)c(C(=O)NOCCO)cc21 [Selumetinib] + C[C@@H]1COCCN1C2=NC(=NC(=C2)C3(CC3)[S@](=N)(=O)C)C4=C5C=CNC5=NC=C4 [AZD6738] (first compound max 10 µM, 7x7, partner max 10 µM) ; system: JSC-1 (B-Cell Non-Hodgkin's Lymphoma)
0.0244

* * *

Some molecules, each annotated with its measured combination Emax.
Test system: KARPAS-422 (B-Cell Non-Hodgkin's Lymphoma)
method: combination Emax (second highest fraction inhibited in the dose matrix, 72 h); higher = more inhibition; extreme values may be limits of the assay
// no unit string in output, number only

NC1(C(=O)N[C@@H](CCO)c2ccc(Cl)cc2)CCN(c2ncnc3[nH]ccc23)CC1 [Capivasertib] + CC(C)n1c(=O)n(C)c2cnc3cc(F)c(-c4ccc(OCCCN5CCCCC5)nc4)cc3c21 [AZD1390] (first compound max 10 µM, 7x7, partner max 0.3 µM) :: 0.507
C[C@@H](c1ccc2nccn2c1)n1nnc2ncc(-c3cnn(C)c3)nc21 [Savolitinib] + CC1(C)CCC(CN2CCN(c3ccc(C(=O)NS(=O)(=O)c4ccc(NCC5CCOCC5)c([N+](=O)[O-])c4)c(Oc4cnc5[nH]ccc5c4)c3)CC2)=C(c2ccc(Cl)cc2)C1 [Venetoclax] (first compound max 1 µM, 7x7, partner max 1 µM) :: 0.257

With those in mind, consider the next molecule.
Please give the documented combination Emax of CC1(C)CCC(CN2CCN(c3ccc(C(=O)NS(=O)(=O)c4ccc(NCC5CCOCC5)c([N+](=O)[O-])c4)c(Oc4cnc5[nH]ccc5c4)c3)CC2)=C(c2ccc(Cl)cc2)C1 [Venetoclax] + Cn1cnc2c(F)c(Nc3ccc(Br)cc3Cl)c(C(=O)NOCCO)cc21 [Selumetinib] (first compound max 1 µM, 7x7, partner max 3 µM)
0.793

* * *

System: TT2609-C02 (Thyroid Gland Carcinoma)
method: combination Emax (second highest fraction inhibited in the dose matrix, 72 h); higher = more inhibition; extreme values may be limits of the assay
metric.name: combination Emax
// no unit string in output, number only

NC1(C(=O)N[C@@H](CCO)c2ccc(Cl)cc2)CCN(c2ncnc3[nH]ccc23)CC1 [Capivasertib] + Cn1cnc2c(F)c(Nc3ccc(Br)cc3Cl)c(C(=O)NOCCO)cc21 [Selumetinib] (first compound max 10 µM, 7x7, partner max 10 µM) :: 0.542

Please give the documented combination Emax of C=CCn1c(=O)c2cnc(Nc3ccc(N4CCN(C)CC4)cc3)nc2n1-c1cccc(C(C)(C)O)n1 [AZD1775] + C1CN(CCC1(C(=O)N[C@@H](CCO)C2=CC=C(C=C2)Cl)N)C3=NC=NC4=C3C=CN4 [Capivasertib] (first compound max 3 µM, partner max 3 µM)
0.466

Please give the documented combination Emax of CN(C)CCCOc1ccc(-c2ccc3ncc4c(c3c2)n(C2CCOCC2)c(=O)n4C)cn1 [AZD0156] + O=C(c1cc(Cc2n[nH]c(=O)c3ccccc23)ccc1F)N1CCN(C(=O)C2CC2)CC1 [Olaparib] (first compound max 3 µM, partner max 3 µM)
0.152

Please give the documented combination Emax of Cn1cnc2c(F)c(Nc3ccc(Br)cc3Cl)c(C(=O)NOCCO)cc21 [Selumetinib] + CC(C)n1c(=O)n(C)c2cnc3cc(F)c(-c4ccc(OCCCN5CCCCC5)nc4)cc3c21 [AZD1390] (first compound max 10 µM, 7x7, partner max 0.3 µM)
0.663

Please give the documented combination Emax of Cn1cnc2c(F)c(Nc3ccc(Br)cc3Cl)c(C(=O)NOCCO)cc21 [Selumetinib] + C[C@@H]1COCCN1C2=NC(=NC(=C2)C3(CC3)[S@](=N)(=O)C)C4=C5C=CNC5=NC=C4 [AZD6738] (first compound max 10 µM, 7x7, partner max 10 µM)
0.506

Please give the documented combination Emax of COc1nnc2ccc(N3CCC(c4ccc(OCCN5CCN(C)C(=O)[C@H]5C)cc4)CC3)nn12 [AZD5153] + Cc1c2c(nn1C)CSCc1cc(n(C)n1)CSc1cc(c3ccccc3c1)OCCCc1c(C(=O)O)n(C)c3c-2c(Cl)ccc13 [AZD5991] (first compound max 1 µM, 7x7, partner max 1 µM)
0.454

* * *

Test system: CAL-29 (Bladder Carcinoma)
method: Bliss excess, mean over the matrix (fraction); higher = more synergy
Assign t whenever Bliss excess does not fall below -0.01; assign f whenever it does.

Some entries whose results are on file:
NC1(C(=O)N[C@@H](CCO)c2ccc(Cl)cc2)CCN(c2ncnc3[nH]ccc23)CC1 [Capivasertib] + CCN(CCO)CCCOc1ccc2c(Nc3cc(CC(=O)Nc4cccc(F)c4)[nH]n3)ncnc2c1 [AZD2811] (first compound max 10 µM, 7x7, partner max 1 µM) :: f
Cc1cc2ncnn2cc1Nc1ncc2c(n1)n(C1CCOCC1)c(=O)n2C [AZD7648] + CCN(CCO)CCCOc1ccc2c(Nc3cc(CC(=O)Nc4cccc(F)c4)[nH]n3)ncnc2c1 [AZD2811] (first compound max 10 µM, 7x7, partner max 1 µM) :: t
COc1nnc2ccc(N3CCC(c4ccc(OCCN5CCN(C)C(=O)[C@H]5C)cc4)CC3)nn12 [AZD5153] + C=CCn1c(=O)c2cnc(Nc3ccc(N4CCN(C)CC4)cc3)nc2n1-c1cccc(C(C)(C)O)n1 [AZD1775] (first compound max 1 µM, partner max 1 µM) :: f
Cc1c2c(nn1C)CSCc1cc(n(C)n1)CSc1cc(c3ccccc3c1)OCCCc1c(C(=O)O)n(C)c3c-2c(Cl)ccc13 [AZD5991] + C1CN(CCC1(C(=O)N[C@@H](CCO)C2=CC=C(C=C2)Cl)N)C3=NC=NC4=C3C=CN4 [Capivasertib] (first compound max 1 µM, 7x7, partner max 3 µM) :: f
Cc1c2c(nn1C)CSCc1cc(n(C)n1)CSc1cc(c3ccccc3c1)OCCCc1c(C(=O)O)n(C)c3c-2c(Cl)ccc13 [AZD5991] + CN(C)CCCOc1ccc(-c2ccc3ncc4c(c3c2)n(C2CCOCC2)c(=O)n4C)cn1 [AZD0156] (first compound max 1 µM, 7x7, partner max 1 µM) :: t

Could you now look at the following molecule, please?
Dear colleague, could you confirm whether COc1nnc2ccc(N3CCC(c4ccc(OCCN5CCN(C)C(=O)[C@H]5C)cc4)CC3)nn12 [AZD5153] + CN(CC[C@H](CSC1=CC=CC=C1)NC2=C(C=C(C=C2)S(=O)(=O)NC(=O)C3=CC=C(C=C3)N4CCC(CC4)[C@H](C5=CC=CC=C5C6=CC=C(C=C6)Cl)O)S(=O)(=O)C(F)(F)F)CCO [AZD4320] (first compound max 1 µM, 7x7, partner max 1 µM) has Bliss excess at or above -0.01?
f

* * *

Tested on: PA-1 (Ovarian Carcinoma)
method: combination Emax (second highest fraction inhibited in the dose matrix, 72 h); higher = more inhibition; extreme values may be limits of the assay
Some compounds, each annotated with its measured combination Emax.
// no unit string in output, number only

NC1(C(=O)N[C@@H](CCO)c2ccc(Cl)cc2)CCN(c2ncnc3[nH]ccc23)CC1 [Capivasertib] + CCN(CCO)CCCOc1ccc2c(Nc3cc(CC(=O)Nc4cccc(F)c4)[nH]n3)ncnc2c1 [AZD2811] (first compound max 10 µM, 7x7, partner max 1 µM) :: 0.918

Please give the documented combination Emax of C[C@@H](c1ccc2nccn2c1)n1nnc2ncc(-c3cnn(C)c3)nc21 [Savolitinib] + Cc1c2c(nn1C)CSCc1cc(n(C)n1)CSc1cc(c3ccccc3c1)OCCCc1c(C(=O)O)n(C)c3c-2c(Cl)ccc13 [AZD5991] (first compound max 1 µM, 7x7, partner max 1 µM)
0.885

Please give the documented combination Emax of Cc1c2c(nn1C)CSCc1cc(n(C)n1)CSc1cc(c3ccccc3c1)OCCCc1c(C(=O)O)n(C)c3c-2c(Cl)ccc13 [AZD5991] + Cc1cc2ncnn2cc1Nc1ncc2c(n1)n(C1CCOCC1)c(=O)n2C [AZD7648] (first compound max 1 µM, 7x7, partner max 10 µM)
0.906

Please give the documented combination Emax of NC1(C(=O)N[C@@H](CCO)c2ccc(Cl)cc2)CCN(c2ncnc3[nH]ccc23)CC1 [Capivasertib] + Cn1cnc2c(F)c(Nc3ccc(Br)cc3Cl)c(C(=O)NOCCO)cc21 [Selumetinib] (first compound max 10 µM, 7x7, partner max 10 µM)
0.884
